Sourced from patent US20200024330A1

Study system: HIV-1 JRCSF envelope glycoprotein (Env) (HIV-1) (UniProt P20871)
Method description: cell-based or functional assay
Readout: IC50 neutralization (µg/mL)
Write the value in µg/mL as a bare number.

{"Binder": "PGT-135 (antibody, V domains shown) VH: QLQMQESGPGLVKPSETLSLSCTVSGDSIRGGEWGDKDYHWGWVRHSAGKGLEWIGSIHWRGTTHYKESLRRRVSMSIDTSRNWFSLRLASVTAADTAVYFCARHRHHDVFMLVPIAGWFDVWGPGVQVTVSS VL: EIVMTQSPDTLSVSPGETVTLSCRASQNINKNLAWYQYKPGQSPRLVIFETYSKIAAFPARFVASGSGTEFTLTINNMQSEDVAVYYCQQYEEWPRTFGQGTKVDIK", "Uom": "µg/mL", "Test value": 0.113}

Then there is this binder:
Recorded IC50 neutralization for PGT-126 (antibody, V domains shown) VH: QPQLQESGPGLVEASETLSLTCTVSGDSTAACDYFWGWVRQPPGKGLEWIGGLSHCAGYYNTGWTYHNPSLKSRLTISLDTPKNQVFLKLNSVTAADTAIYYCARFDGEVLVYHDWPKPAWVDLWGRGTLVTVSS VL: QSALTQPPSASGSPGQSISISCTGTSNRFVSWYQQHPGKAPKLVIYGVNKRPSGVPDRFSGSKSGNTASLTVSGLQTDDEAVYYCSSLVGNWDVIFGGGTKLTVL , please?
0.0061
